# target: WNV NS2B/NS3pro (West Nile virus, UniProt Q9Q6P4)
# Sequence (Q9Q6P4 1506-1683): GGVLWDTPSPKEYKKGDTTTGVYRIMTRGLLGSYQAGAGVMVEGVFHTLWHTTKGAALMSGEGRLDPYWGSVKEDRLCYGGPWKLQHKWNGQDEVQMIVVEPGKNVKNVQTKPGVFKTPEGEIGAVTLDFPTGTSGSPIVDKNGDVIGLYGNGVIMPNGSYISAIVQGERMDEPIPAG
# assay details: Kinetics analysis of WNV NS2B/NS3pro inhibition
# Format: biochemical
measure name: pKi
Scale: pKi equals -log10([C]), with [C] in mol/L.

For O=C(NCc1cn(Cc2ccc(F)cc2)nn1)Nc1ccc(C(=O)Nc2ccc(Oc3ccccc3)cc2)cc1 [Compound 7n] the compound record lists pKi as 5.26
